Measured target: T1, recombinant human CD33 protein (Sino Biologicals) (human, UniProt P20138 18-259)
T1 construct: Bought protein; also called recombinant CD33
T1 sequence (P20138 18-259 limits assumed): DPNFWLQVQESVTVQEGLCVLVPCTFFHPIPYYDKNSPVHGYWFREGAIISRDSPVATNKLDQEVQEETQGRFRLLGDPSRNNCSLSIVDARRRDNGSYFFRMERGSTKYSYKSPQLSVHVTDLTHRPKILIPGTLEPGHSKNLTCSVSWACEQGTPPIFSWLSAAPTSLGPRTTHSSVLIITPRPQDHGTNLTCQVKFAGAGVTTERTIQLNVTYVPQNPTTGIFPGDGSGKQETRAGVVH
Method description: BLI (ForteBio), antibody on anti-human Fc sensor, CD33 10 nM
Entries and their measured pKd follow.
The scale used: pKd is minus the common logarithm of the concentration in molar units.

[
  {
    "Binder": "anti-CD33 antibody 6C7H28 (antibody, V domains shown, VH/VL only) VH: EVQLVESGGGLVQPGGSLRLSCAGSGFTFSDYSMNWVRQAPGKGLEWVAEIRLKSNNYVTNYAASVKGRFTISRDDSKNSVYLQMNSLKTEDTGVYYCTRAGYYVPFAYWGQGTLVTVSS VL: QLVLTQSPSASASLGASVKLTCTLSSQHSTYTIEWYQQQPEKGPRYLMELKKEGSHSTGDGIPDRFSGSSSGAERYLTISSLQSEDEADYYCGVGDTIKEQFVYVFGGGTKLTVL",
    "pKd": 9.12
  },
  {
    "Binder": "anti-CD33 antibody 6C7H5 (antibody, V domains shown, Humanized 6C7; VH/VL only; also called parental humanized antibody) VH: EVQLVESGGGLVQPGGSLRLSCAGSGFTFSNYCMNWVRQAPGKGLEWVAEIRLKSNNYVTNYAASVKGRFTISRDDSKNSVYLQMNSLKTEDTGVYYCTRDGYYVPFAYWGQGTLVTVSS VL: QLVLTQSPSASASLGASVKLTCTLSSQHSTYTIEWYQQQPEKGPRYLMELKKDGSHSTGDGIPDRFSGSSSGAERYLTISSLQSEDEADYYCGVGDTIKEQFVYVFGGGTKLTVL",
    "pKd": 9.36
  },
  {
    "Binder": "anti-CD33 antibody 6C7H12 (antibody, V domains shown, VH/VL only) VH: EVQLVESGGGLVQPGGSLRLSCAGSGFTFSNYGMNWVRQAPGKGLEWVAEIRLKSNNYVTNYAASVKGRFTISRDDSKNSVYLQMNSLKTEDTGVYYCTRAGYYVPFAYWGQGTLVTVSS VL: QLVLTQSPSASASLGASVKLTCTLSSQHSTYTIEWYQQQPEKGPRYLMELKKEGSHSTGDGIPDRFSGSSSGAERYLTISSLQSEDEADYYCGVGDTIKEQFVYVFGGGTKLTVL",
    "pKd": 9.03
  }
]

# input Please give the measured pKd for this binder: anti-CD33 antibody 6C7H15 (antibody, V domains shown, VH/VL only) VH: EVQLVESGGGLVQPGGSLRLSCAGSGFTFSNYSMNWVRQAPGKGLEWVAEIRLKSNNYVTNYAASVKGRFTISRDDSKNSVYLQMNSLKTEDTGVYYCTRAGYYVPFAYWGQGTLVTVSS VL: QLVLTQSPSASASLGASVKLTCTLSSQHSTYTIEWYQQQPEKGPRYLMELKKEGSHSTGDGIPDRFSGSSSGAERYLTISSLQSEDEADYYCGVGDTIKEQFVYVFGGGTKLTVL
# output 8.99

# input Please give the measured pKd for this binder: anti-CD33 antibody 6C7H27 (antibody, V domains shown, VH/VL only) VH: EVQLVESGGGLVQPGGSLRLSCAGSGFTFSDYTMNWVRQAPGKGLEWVAEIRLKSNNYVTNYAASVKGRFTISRDDSKNSVYLQMNSLKTEDTGVYYCTRAGYYVPFAYWGQGTLVTVSS VL: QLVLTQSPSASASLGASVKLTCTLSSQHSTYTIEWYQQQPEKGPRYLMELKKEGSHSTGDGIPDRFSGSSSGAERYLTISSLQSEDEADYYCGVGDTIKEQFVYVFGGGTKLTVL
# output 8.56

# input Please give the measured pKd for this binder: anti-CD33 antibody 6C7H13 (antibody, V domains shown, VH/VL only) VH: EVQLVESGGGLVQPGGSLRLSCAGSGFTFSNYFMNWVRQAPGKGLEWVAEIRLKSNNYVTNYAASVKGRFTISRDDSKNSVYLQMNSLKTEDTGVYYCTRAGYYVPFAYWGQGTLVTVSS VL: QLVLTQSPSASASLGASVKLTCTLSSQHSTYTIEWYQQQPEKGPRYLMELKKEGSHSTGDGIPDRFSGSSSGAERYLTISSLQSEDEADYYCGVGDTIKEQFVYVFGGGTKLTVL
# output 8.41
